- Assay Remarks: WST-1 cellular toxicity assay, bone marrow-derived macrophages
- Experimental Setup: Swiss Webster, mouse
Provide the reported CC50 of each item.
A bare number is not enough; add the unit after it.

Quickly give me recorded CC50 for CCCC(NC(=O)/C(C#N)=C/c1cccc(F)n1)c1ccc(OCCN2CCOCC2)cc1 (stereo not shown)
7.11 µM

Quickly give me recorded CC50 for CCCC(NC(=O)/C(C#N)=C/c1cccc(Br)n1)c1ccc(OCCN(C)C)cc1 (stereo not shown)
6.12 µM

Quickly give me recorded CC50 for CCC[C@H](NC(=O)/C=C/c1cccc(Br)n1)c1ccccc1
10.4 µM

Quickly give me recorded CC50 for CCC(NC(=O)/C(C#N)=C/c1cccc(Br)n1)c1ccc(O)cc1 (stereo not shown)
15.2 µM

Quickly give me recorded CC50 for CCCC(NC(=O)/C(C#N)=C/c1ccccn1)c1ccc(OCCN2CCOCC2)cc1 (stereo not shown)
11.1 µM

Quickly give me recorded CC50 for CCC[C@H](NC(=O)C(C#N)Cc1cccc(Br)n1)c1ccccc1 (stereo partly shown)
8.53 µM

Quickly give me recorded CC50 for CCCC(NC(=O)/C(C#N)=C/c1cccnc1F)c1ccc(OCCN2CCOCC2)cc1 (stereo not shown)
11.3 µM

---

- Assay Remarks: Aqueous solubility as per Lipinski et al.
- Experimental Setup: kinetic from dmso stock
Measure Name: solubility (µM)
The reply should be a number in µM, with the unit left off.

Quickly give me recorded solubility for CCCC(NC(=O)/C(C#N)=C/c1cccc(Br)n1)c1ccc(OCCN(C)C)cc1 (stereo not shown)
19

Quickly give me recorded solubility for CCCC(NC(=O)/C(C#N)=C/c1cccnc1F)c1ccc(OCCN2CCOCC2)cc1 (stereo not shown)
14

Quickly give me recorded solubility for CCCC(NC(=O)/C(C#N)=C/c1cccc(F)n1)c1ccc(OCCN2CCOCC2)cc1 (stereo not shown)
14

Quickly give me recorded solubility for CCCC(NC(=O)/C(C#N)=C/c1ccccn1)c1ccc(OCCN2CCOCC2)cc1 (stereo not shown)
160

---

- Experimental Setup: mouse
Measure Name: CC50

Quickly give me recorded CC50 for CCCC(NC(=O)/C(C#N)=C/c1cccnc1F)c1ccc(OCCN2CCOCC2)cc1 (stereo not shown)
15.4 µM

Quickly give me recorded CC50 for CCCC(NC(=O)/C(C#N)=C/c1cccc(Br)n1)c1ccc(OCCN(C)C)cc1 (stereo not shown)
9.43 µM

Quickly give me recorded CC50 for CCC[C@H](NC(=O)C(C#N)Cc1cccc(Br)n1)c1ccccc1 (stereo partly shown)
24.9 µM

Quickly give me recorded CC50 for CCC(NC(=O)/C(C#N)=C/c1cccc(Br)n1)c1ccc(O)cc1 (stereo not shown)
11 µM

Quickly give me recorded CC50 for CCCC(NC(=O)/C(C#N)=C/c1ccccn1)c1ccc(OCCN2CCOCC2)cc1 (stereo not shown)
7.46 µM

Quickly give me recorded CC50 for CCCC(NC(=O)/C(C#N)=C/c1cccc(F)n1)c1ccc(OCCN2CCOCC2)cc1 (stereo not shown)
13.7 µM

Quickly give me recorded CC50 for CCC[C@H](NC(=O)/C=C/c1cccc(Br)n1)c1ccccc1
24.7 µM

---

- Assay Remarks: WST-1 cellular toxicity assay, HG23 replicon-bearing cells
- Assay type: cell-based
- Experimental Setup: human, HG23 Norwalk virus replicon-bearing cells, WST-1 viability
Measure Name: CC50 at 24 h (µM)
The reply should be a number in µM, with the unit left off.

Quickly give me recorded CC50 at 24 h for CCCC(NC(=O)/C(C#N)=C/c1cccc(F)n1)c1ccc(OCCN2CCOCC2)cc1 (centres unmarked)
6.12

Quickly give me recorded CC50 at 24 h for CCCC(NC(=O)/C(C#N)=C/c1cccc(Br)n1)c1ccc(OCCN(C)C)cc1 (centres unmarked)
7.82

Quickly give me recorded CC50 at 24 h for CCC[C@H](NC(=O)C(C#N)Cc1cccc(Br)n1)c1ccccc1 (some centres unmarked)
8.71

Quickly give me recorded CC50 at 24 h for CCC(NC(=O)/C(C#N)=C/c1cccc(Br)n1)c1ccc(O)cc1 (centres unmarked)
9.26

Quickly give me recorded CC50 at 24 h for CCCC(NC(=O)/C(C#N)=C/c1cccnc1F)c1ccc(OCCN2CCOCC2)cc1 (centres unmarked)
7.61

Quickly give me recorded CC50 at 24 h for CCC[C@H](NC(=O)/C(C#N)=C/c1cccc(Br)n1)c1ccccc1 [WP1130, reference compound]
6.2

Quickly give me recorded CC50 at 24 h for CCCC(NC(=O)/C(C#N)=C/c1ccccn1)c1ccc(OCCN2CCOCC2)cc1 (centres unmarked)
10.4

Quickly give me recorded CC50 at 24 h for CCC[C@H](NC(=O)/C=C/c1cccc(Br)n1)c1ccccc1
7.2
